Tested on: 935938-334-R-J1-PDC spheroids with HUVEC/MSC, viability
Protocol summary: Anticancer human tumor 935938-334-R-J1-PDC patient-derived small intestine adenocarcinoma cell line growth inhibition [PI3K]
Experimental context: curve of first compound; second compound 1 µM
Listed below: IC50 values for each entry.
Property: IC50 (nM)

1. CC(C)NCC(C(=O)N1CCN(c2ncnc3c2C(C)CC3O)CC1)c1ccc(Cl)cc1 (centres undefined) + CC(Nc1ncnc2nc[nH]c12)c1cc2cccc(Cl)c2c(=O)n1-c1ccccc1 :: 1780
2. CC(C)n1nc(-c2ccc3oc(N)nc3c2)c2c(N)ncnc21 + CC(Nc1ccc2c(c1)OCCn1cc(N3C(=O)OCC3C(F)F)nc1-2)C(N)=O :: 8.33

---

Test system: 935938-334-R-J1-PDC spheroids with HUVEC/MSC, viability
Protocol summary: Anticancer human tumor 935938-334-R-J1-PDC cell line growth inhibition [PI3K];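 further: compound exposure lasted seven days before viability was read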;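 on viability, T/C: percent of vehicle DMSO treated spheroid viability so 100% = untreated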
Experimental context: second compound 0.1 µM; first compound 0.01 µM; stronger effect = lower value
Listed below: viability, T/C values for each entry.
Property: viability, T/C (%)

1) Cn1ncnc1[C@H]1c2n[nH]c(=O)c3cc(F)cc(c23)N[C@@H]1c1ccc(F)cc1 + Cc1nc(NC(=O)N2CCCC2C(N)=O)sc1-c1ccnc(C(C)(C)C(F)(F)F)c1 :: 67.5
2) CC(C)n1nc(-c2ccc3oc(N)nc3c2)c2c(N)ncnc21 + Cc1nc(NC(=O)N2CCCC2C(N)=O)sc1-c1ccnc(C(C)(C)C(F)(F)F)c1 :: 92
3) CC(C)n1nc(-c2ccc3oc(N)nc3c2)c2c(N)ncnc21 + COc1c(OCCCN2CCOCC2)ccc2c3n(c(=NC(=O)c4cnc(N)nc4)nc12)CCN3 :: 48.2

---

System: 935938-334-R-J1-PDC spheroids with HUVEC/MSC, viability
Protocol summary: Anticancer human tumor 935938-334-R-J1-PDC cell line growth inhibition [PI3K];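 further: compound exposure lasted seven days before viability was read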;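 on viability, T/C: percent of vehicle DMSO treated spheroid viability so 100% = untreated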
Experimental context: second compound 0.0316 µM; first compound 1 µM; stronger effect = lower value
Property: viability, T/C (%)

1. Cn1nccc1Nc1nccc(-c2ccn(C(CO)c3ccc(Cl)c(F)c3)c(=O)c2)n1 (stereo unspecified) + CC(Nc1ncnc2nc[nH]c12)c1cc2cccc(Cl)c2c(=O)n1-c1ccccc1 :: 46.7
2. CC1(C)CCC(Nc2ncc(C(F)(F)F)c(-c3c[nH]c4c(P(C)(C)=O)c(C#N)ccc34)n2)CN1 (stereo unspecified) + CC(Nc1ncnc2nc[nH]c12)c1cc2cccc(Cl)c2c(=O)n1-c1ccccc1 :: 35.3
3. CC1(C)CCC(CN2CCN(c3ccc(C(=O)NS(=O)(=O)c4ccc(NCC5CCOCC5)c([N+](=O)[O-])c4)c(Oc4cnc5[nH]ccc5c4)c3)CC2)=C(c2ccc(Cl)cc2)C1 + CC(Nc1ncnc2nc[nH]c12)c1cc2cccc(Cl)c2c(=O)n1-c1ccccc1 :: 88.8
4. Cn1ncc(Cl)c1-c1cc(C(=O)NC(CN)Cc2cccc(F)c2)sc1Cl (stereo unspecified) + Cc1nc(NC(=O)N2CCCC2C(N)=O)sc1-c1ccnc(C(C)(C)C(F)(F)F)c1 :: 67.4
5. CC1(C)CCC(CN2CCN(c3ccc(C(=O)NS(=O)(=O)c4ccc(NCC5CCOCC5)c([N+](=O)[O-])c4)c(Oc4cnc5[nH]ccc5c4)c3)CC2)=C(c2ccc(Cl)cc2)C1 + COc1c(OCCCN2CCOCC2)ccc2c3n(c(=NC(=O)c4cnc(N)nc4)nc12)CCN3 :: 68.5
6. CC(Cn1ccc(-c2ccc(C#N)c(Cl)c2)n1)NC(=O)c1cc(C(C)O)[nH]n1 (stereo unspecified) + CC(Nc1ccc2c(c1)OCCn1cc(N3C(=O)OCC3C(F)F)nc1-2)C(N)=O :: 94.1
7. C[C@@H](NC(=O)c1ncnc(N)c1Cl)c1ncc(C(=O)Nc2cc(C(F)(F)F)c(Cl)cn2)s1 + CC(Nc1ccc2c(c1)OCCn1cc(N3C(=O)OCC3C(F)F)nc1-2)C(N)=O :: 113
8. CC1(C)CCC(Nc2ncc(C(F)(F)F)c(-c3c[nH]c4c(P(C)(C)=O)c(C#N)ccc34)n2)CN1 (stereo unspecified) + COc1c(OCCCN2CCOCC2)ccc2c3n(c(=NC(=O)c4cnc(N)nc4)nc12)CCN3 :: 27.5
9. CNC(=O)c1ccc(N2C(=S)N(c3ccc(C#N)c(C(F)(F)F)c3)C(=O)C2(C)C)cc1F + CC(Nc1ncnc2nc[nH]c12)c1cc2cccc(Cl)c2c(=O)n1-c1ccccc1 :: 85.2
10. CCN1CCN(Cc2ccc(Nc3ncc(F)c(-c4cc(F)c5nc(C)n(C(C)C)c5c4)n3)nc2)CC1 + Cc1nc(NC(=O)N2CCCC2C(N)=O)sc1-c1ccnc(C(C)(C)C(F)(F)F)c1 :: 32.4
11. CC(C)NCC(C(=O)N1CCN(c2ncnc3c2C(C)CC3O)CC1)c1ccc(Cl)cc1 (stereo unspecified) + Cc1nc(NC(=O)N2CCCC2C(N)=O)sc1-c1ccnc(C(C)(C)C(F)(F)F)c1 :: 61.5
12. CC(C)NCC(C(=O)N1CCN(c2ncnc3c2C(C)CC3O)CC1)c1ccc(Cl)cc1 (stereo unspecified) + COc1c(OCCCN2CCOCC2)ccc2c3n(c(=NC(=O)c4cnc(N)nc4)nc12)CCN3 :: 48.5
13. CC(Cn1ccc(-c2ccc(C#N)c(Cl)c2)n1)NC(=O)c1cc(C(C)O)[nH]n1 (stereo unspecified) + CC(Nc1ncnc2nc[nH]c12)c1cc2cccc(Cl)c2c(=O)n1-c1ccccc1 :: 111
14. CC1(C)CCC(CN2CCN(c3ccc(C(=O)NS(=O)(=O)c4ccc(NCC5CCOCC5)c([N+](=O)[O-])c4)c(Oc4cnc5[nH]ccc5c4)c3)CC2)=C(c2ccc(Cl)cc2)C1 + Cc1nc(NC(=O)N2CCCC2C(N)=O)sc1-c1ccnc(C(C)(C)C(F)(F)F)c1 :: 80.6
15. CC(C)NCC(C(=O)N1CCN(c2ncnc3c2C(C)CC3O)CC1)c1ccc(Cl)cc1 (stereo unspecified) + CC(Nc1ncnc2nc[nH]c12)c1cc2cccc(Cl)c2c(=O)n1-c1ccccc1 :: 64
16. C#Cc1c(F)ccc2cc(O)cc(-c3ncc4c(N5CC6CCC(C5)N6)nc(OCC56CCCN5CC(F)C6)nc4c3F)c12 (stereo unspecified) + CC(Nc1ncnc2nc[nH]c12)c1cc2cccc(Cl)c2c(=O)n1-c1ccccc1 :: 65.5
17. CC(Cn1ccc(-c2ccc(C#N)c(Cl)c2)n1)NC(=O)c1cc(C(C)O)[nH]n1 (stereo unspecified) + Cc1nc(NC(=O)N2CCCC2C(N)=O)sc1-c1ccnc(C(C)(C)C(F)(F)F)c1 :: 91
18. CC(C)NCC(C(=O)N1CCN(c2ncnc3c2C(C)CC3O)CC1)c1ccc(Cl)cc1 (stereo unspecified) + CC(Nc1ccc2c(c1)OCCn1cc(N3C(=O)OCC3C(F)F)nc1-2)C(N)=O :: 46.5
19. Cn1nccc1Nc1nccc(-c2ccn(C(CO)c3ccc(Cl)c(F)c3)c(=O)c2)n1 (stereo unspecified) + CC(Nc1ccc2c(c1)OCCn1cc(N3C(=O)OCC3C(F)F)nc1-2)C(N)=O :: 59.5
20. CCN1CCN(Cc2ccc(Nc3ncc(F)c(-c4cc(F)c5nc(C)n(C(C)C)c5c4)n3)nc2)CC1 + CC(Nc1ncnc2nc[nH]c12)c1cc2cccc(Cl)c2c(=O)n1-c1ccccc1 :: 37.3
21. CNC(=O)c1ccc(N2C(=S)N(c3ccc(C#N)c(C(F)(F)F)c3)C(=O)C2(C)C)cc1F + Cc1nc(NC(=O)N2CCCC2C(N)=O)sc1-c1ccnc(C(C)(C)C(F)(F)F)c1 :: 91.9
